# Tested on: OVCAR-5 ovarian
# ASSAY_NOTES: NCI-60 one-dose screen, 48 h (100 = growth as untreated, 0 = no growth, -100 = all killed)
# TEST_CONDITIONS: 10 µM unless noted
This is part of a sample that, as a whole, favours compounds with a hit. Of some 83,000 tested, about 20% had one in any assay.
REPORTED_METRIC: growth (%)

[
  {
    "MOLECULE": "OC(c1cc(-c2cccc(Cl)c2)nc2ccccc12)C1CCCCN1 (stereo not drawn)",
    "OBSERVED_VALUE": 2.42
  },
  {
    "MOLECULE": "N#Cc1c(-c2ccccc2)cc(-c2ccccc2)n(CCCCC(=O)O)c1=O",
    "OBSERVED_VALUE": 98
  },
  {
    "MOLECULE": "OCc1n(Cc2ccc3ccccc3c2)cc[n+]1Cc1ccc2ccccc2c1",
    "OBSERVED_VALUE": 62.3
  },
  {
    "MOLECULE": "O=C(NCCNC(=O)Oc1cccc2ccccc12)Oc1cccc2ccccc12",
    "OBSERVED_VALUE": 105
  },
  {
    "MOLECULE": "CC1CC=CCC1C1OCC(C)(C)CO1 (stereo not drawn)",
    "OBSERVED_VALUE": 104
  },
  {
    "MOLECULE": "O=[N+]([O-])c1ccc(NS(=O)(=O)c2ccc(Cl)c(Cl)c2)cc1",
    "OBSERVED_VALUE": 113
  },
  {
    "MOLECULE": "Nc1ccc(N=Nc2ccccc2)cc1[N+](=O)[O-]",
    "OBSERVED_VALUE": 110
  },
  {
    "MOLECULE": "COc1cc(-c2nc3nc4sc(C)c(C)c4c(=O)n3[nH]2)cc(OC)c1OC",
    "OBSERVED_VALUE": 96.4
  },
  {
    "MOLECULE": "N/C(=N\\c1nc2ccccc2s1)NC(=O)Nc1ccccc1Cl",
    "OBSERVED_VALUE": 32.5
  },
  {
    "MOLECULE": "COc1ccc(C2=NN(C(C)=O)C(c3c(C)nn(-c4ccccc4)c3N3CCOCC3)C2)cc1 (stereo not drawn)",
    "OBSERVED_VALUE": 97.6
  },
  {
    "MOLECULE": "Cn1ccnc1C(=O)/C=C/c1ccc(C(=O)Nc2nc3ccccc3[nH]2)cc1",
    "OBSERVED_VALUE": 59.9
  },
  {
    "MOLECULE": "COc1ccc(/C=C2\\CCc3ccccc3C2=O)cc1",
    "OBSERVED_VALUE": 109
  },
  {
    "MOLECULE": "O=C1CNc2cc(Cl)ccc2N1",
    "OBSERVED_VALUE": 102
  },
  {
    "MOLECULE": "OC(c1ccccc1)C(NCc1ccccc1)c1ccccc1 (stereo not drawn)",
    "OBSERVED_VALUE": 88.6
  },
  {
    "MOLECULE": "CCCCCCC(CC#N)(CCC)CCCC (stereo not drawn)",
    "OBSERVED_VALUE": 97.8
  },
  {
    "MOLECULE": "Cc1ccc(C(NC(=O)c2ccccc2)c2ccc3cccnc3c2O)cc1 (stereo not drawn)",
    "OBSERVED_VALUE": 44.8
  },
  {
    "MOLECULE": "O=C(Nc1cccc(Cl)c1)Nc1cccc(Cl)c1",
    "OBSERVED_VALUE": 86.8
  },
  {
    "MOLECULE": "Cc1cc(C)c(C(=O)c2cccs2)c(C)c1",
    "OBSERVED_VALUE": 98.1
  },
  {
    "MOLECULE": "Cc1ccc(-c2csc(N)n2)cc1",
    "OBSERVED_VALUE": 94
  },
  {
    "MOLECULE": "CCOC(=O)OCC(=O)[C@@]1(O)CC[C@H]2[C@@H]3CCC4=CC(=O)CC[C@]4(C)[C@H]3[C@@H](O)C[C@@]21C",
    "OBSERVED_VALUE": 83.2
  },
  {
    "MOLECULE": "COc1cc(/C=N/OC(=O)Nc2ccccc2)cc(OC)c1OC",
    "OBSERVED_VALUE": 104
  },
  {
    "MOLECULE": "CC(=O)OCC(=O)[C@@]1(O)CC[C@H]2[C@@H]3CCC4=CC(=O)CC[C@]4(C)[C@@]3(F)[C@@H](O)C[C@@]21C",
    "OBSERVED_VALUE": 80.2
  },
  {
    "MOLECULE": "CCOC(=O)N1CCC(N=C2CSc3nnc(-c4cc(C(F)(F)F)cc(C(F)(F)F)c4)n3N2)CC1",
    "OBSERVED_VALUE": 25.6
  }
]

Reference source for all entries: PubChem BioAssay (NCI)
